Listing of entries alongside the reported combination Emax.
# Tested on: RMG-I (Ovarian Carcinoma)
# testName: combination Emax (second highest fraction inhibited in the dose matrix, 72 h); higher = more inhibition; extreme values may be limits of the assay

# compound, combination Emax
records = [
    ("Cc1cc2ncnn2cc1Nc1ncc2c(n1)n(C1CCOCC1)c(=O)n2C [AZD7648] + C=CCn1c(=O)c2cnc(Nc3ccc(N4CCN(C)CC4)cc3)nc2n1-c1cccc(C(C)(C)O)n1 [AZD1775] (first compound max 10 µM, partner max 1 µM)", 0.471),
    ("CN(C)CCCOc1ccc(-c2ccc3ncc4c(c3c2)n(C2CCOCC2)c(=O)n4C)cn1 [AZD0156] + C=CCn1c(=O)c2cnc(Nc3ccc(N4CCN(C)CC4)cc3)nc2n1-c1cccc(C(C)(C)O)n1 [AZD1775] (first compound max 1 µM, partner max 1 µM)", 0.291),
    ("O=C(c1cc(Cc2n[nH]c(=O)c3ccccc23)ccc1F)N1CCN(C(=O)C2CC2)CC1 [Olaparib] + CN(CC[C@H](CSC1=CC=CC=C1)NC2=C(C=C(C=C2)S(=O)(=O)NC(=O)C3=CC=C(C=C3)N4CCC(CC4)[C@H](C5=CC=CC=C5C6=CC=C(C=C6)Cl)O)S(=O)(=O)C(F)(F)F)CCO [AZD4320] (first compound max 10 µM, 7x7, partner max 1 µM)", 0.534),
    ("Cc1c2c(nn1C)CSCc1cc(n(C)n1)CSc1cc(c3ccccc3c1)OCCCc1c(C(=O)O)n(C)c3c-2c(Cl)ccc13 [AZD5991] + C[C@@H]1COCCN1C2=NC(=NC(=C2)C3(CC3)[S@](=N)(=O)C)C4=C5C=CNC5=NC=C4 [AZD6738] (first compound max 1 µM, 7x7, partner max 10 µM)", 0.544),
    ("COc1cc2c(cc1OCCCCCOc1cc3c(cc1OC)C(=O)N1C=C(C)C[C@H]1C=N3)N=C[C@@H]1CC(C)=CN1C2=O [SG3199] + O=C(c1cc(Cc2n[nH]c(=O)c3ccccc23)ccc1F)N1CCN(C(=O)C2CC2)CC1 [Olaparib] (first compound max 0.001 µM, 7x7, partner max 10 µM)", 0.114),
    ("N#Cc1cnc(Nc2cc(NC[C@H]3CNCCO3)c(C(F)(F)F)cn2)cn1 [SRA737] + Nc1ccn([C@@H]2O[C@H](CO)[C@@H](O)C2(F)F)c(=O)n1 [Gemcitabine] (first compound max 10 µM, 7x7, partner max 0.3 µM)", 0.402),
    ("CC1(C)CCC(CN2CCN(c3ccc(C(=O)NS(=O)(=O)c4ccc(NCC5CCOCC5)c([N+](=O)[O-])c4)c(Oc4cnc5[nH]ccc5c4)c3)CC2)=C(c2ccc(Cl)cc2)C1 [Venetoclax] + CN(C)CCCOc1ccc(-c2ccc3ncc4c(c3c2)n(C2CCOCC2)c(=O)n4C)cn1 [AZD0156] (first compound max 1 µM, 7x7, partner max 1 µM)", 0.348),
]

----------
# Tested on: HTC-C3 (Thyroid Gland Carcinoma)
# testName: Bliss excess, mean over the matrix (fraction); higher = more synergy
Listing of entries alongside the reported Bliss excess.

# molecule, Bliss excess
rows = [
    ("CC1(C)CCC(CN2CCN(c3ccc(C(=O)NS(=O)(=O)c4ccc(NCC5CCOCC5)c([N+](=O)[O-])c4)c(Oc4cnc5[nH]ccc5c4)c3)CC2)=C(c2ccc(Cl)cc2)C1 [Venetoclax] + Cc1cc2ncnn2cc1Nc1ncc2c(n1)n(C1CCOCC1)c(=O)n2C [AZD7648] (first compound max 1 µM, 7x7, partner max 10 µM)", -0.0197),
    ("COc1nnc2ccc(N3CCC(c4ccc(OCCN5CCN(C)C(=O)[C@H]5C)cc4)CC3)nn12 [AZD5153] + CCN(CCO)CCCOc1ccc2c(Nc3cc(CC(=O)Nc4cccc(F)c4)[nH]n3)ncnc2c1 [AZD2811] (first compound max 1 µM, 7x7, partner max 1 µM)", -0.05),
    ("COc1cc2c(cc1OCCCCCOc1cc3c(cc1OC)C(=O)N1C=C(C)C[C@H]1C=N3)N=C[C@@H]1CC(C)=CN1C2=O [SG3199] + O=C(c1cc(Cc2n[nH]c(=O)c3ccccc23)ccc1F)N1CCN(C(=O)C2CC2)CC1 [Olaparib] (first compound max 0.001 µM, 7x7, partner max 10 µM)", -0.013),
    ("C[C@@H]1COCCN1c1cc(C2([S@](C)(=N)=O)CC2)nc(-c2ccnc3[nH]ccc23)n1 [AZD6738] + O=C(c1cc(Cc2n[nH]c(=O)c3ccccc23)ccc1F)N1CCN(C(=O)C2CC2)CC1 [Olaparib] (first compound max 10 µM, 7x7, partner max 10 µM)", 0.0226),
]

----------
# System: LOUCY (T-Lymphoblastic Leukemia)
# testName: Bliss excess, mean over the matrix (fraction); higher = more synergy
Listing of entries alongside the reported Bliss excess.
observationType: Bliss excess

# compound, targetOfAssay, experimentalResult
rows = [
    ("CN(CCO)CC[C@H](CSc1ccccc1)Nc1ccc(S(=O)(=O)NC(=O)c2ccc(N3CCC([C@@H](O)c4ccccc4-c4ccc(Cl)cc4)CC3)cc2)cc1S(=O)(=O)C(F)(F)F [AZD4320] + Nc1ccn([C@@H]2O[C@H](CO)[C@@H](O)C2(F)F)c(=O)n1 [Gemcitabine] (first compound max 1 µM, 7x7, partner max 0.3 µM)", "LOUCY (T-Lymphoblastic Leukemia)", 0.0431),
    ("CC1(C)CCC(CN2CCN(c3ccc(C(=O)NS(=O)(=O)c4ccc(NCC5CCOCC5)c([N+](=O)[O-])c4)c(Oc4cnc5[nH]ccc5c4)c3)CC2)=C(c2ccc(Cl)cc2)C1 [Venetoclax] + Cc1cc2ncnn2cc1Nc1ncc2c(n1)n(C1CCOCC1)c(=O)n2C [AZD7648] (first compound max 1 µM, 7x7, partner max 10 µM)", "LOUCY (T-Lymphoblastic Leukemia)", 0.0678),
    ("COc1cccc(OCCCN)c1-c1cc(Nc2cnc(C#N)cn2)n[nH]1 [Prexasertib] + CCc1c2c(nc3ccc(O)cc13)-c1cc3c(c(=O)n1C2)COC(=O)[C@]3(O)CC [SN-38] (first compound max 1 µM, 7x7, partner max 0.3 µM)", "LOUCY (T-Lymphoblastic Leukemia)", 0.0103),
]

----------
# System: OCI-AML5 (Acute Myeloid Leukemia)
# testName: combination Emax (second highest fraction inhibited in the dose matrix, 72 h); higher = more inhibition; extreme values may be limits of the assay

# compound, combination Emax
data = [
    ("Cn1cnc2c(F)c(Nc3ccc(Br)cc3Cl)c(C(=O)NOCCO)cc21 [Selumetinib] + C[C@@H]1COCCN1C2=NC(=NC(=C2)C3(CC3)[S@](=N)(=O)C)C4=C5C=CNC5=NC=C4 [AZD6738] (first compound max 10 µM, 7x7, partner max 10 µM)", 1),
    ("NC1(C(=O)N[C@@H](CCO)c2ccc(Cl)cc2)CCN(c2ncnc3[nH]ccc23)CC1 [Capivasertib] + CCN(CCO)CCCOc1ccc2c(Nc3cc(CC(=O)Nc4cccc(F)c4)[nH]n3)ncnc2c1 [AZD2811] (first compound max 10 µM, 7x7, partner max 1 µM)", 0.974),
    ("CN(CCO)CC[C@H](CSc1ccccc1)Nc1ccc(S(=O)(=O)NC(=O)c2ccc(N3CCC([C@@H](O)c4ccccc4-c4ccc(Cl)cc4)CC3)cc2)cc1S(=O)(=O)C(F)(F)F [AZD4320] + Cc1cc2ncnn2cc1Nc1ncc2c(n1)n(C1CCOCC1)c(=O)n2C [AZD7648] (first compound max 1 µM, 7x7, partner max 10 µM)", 1),
]

----------
# Tested on: OVTOKO (Ovarian Carcinoma)
# testName: Bliss excess, mean over the matrix (fraction); higher = more synergy
Listing of entries alongside the reported Bliss excess.

# compound, Bliss excess
records = [
    ("CCc1c2c(nc3ccc(O)cc13)-c1cc3c(c(=O)n1C2)COC(=O)[C@]3(O)CC [SN-38] + CN(C)CCCOc1ccc(-c2ccc3ncc4c(c3c2)n(C2CCOCC2)c(=O)n4C)cn1 [AZD0156] (first compound max 0.3 µM, 7x7, partner max 1 µM)", -0.0523),
    ("Cc1c2c(nn1C)CSCc1cc(n(C)n1)CSc1cc(c3ccccc3c1)OCCCc1c(C(=O)O)n(C)c3c-2c(Cl)ccc13 [AZD5991] + C=CCn1c(=O)c2cnc(Nc3ccc(N4CCN(C)CC4)cc3)nc2n1-c1cccc(C(C)(C)O)n1 [AZD1775] (first compound max 1 µM, partner max 1 µM)", 0.0474),
]

----------
# Tested on: KYSE-70 (Esophageal Squamous Cell Carcinoma)
# testName: Bliss excess, mean over the matrix (fraction); higher = more synergy
# Bliss excess >= -0.01 gives condition met, anything below gives condition not met

# compound, targetOfAssay, label
rows = [
    ("C=CCn1c(=O)c2cnc(Nc3ccc(N4CCN(C)CC4)cc3)nc2n1-c1cccc(C(C)(C)O)n1 [AZD1775] + C1CN(CCC1(C(=O)N[C@@H](CCO)C2=CC=C(C=C2)Cl)N)C3=NC=NC4=C3C=CN4 [Capivasertib] (first compound max 3 µM, partner max 3 µM)", "KYSE-70 (Esophageal Squamous Cell Carcinoma)", "condition not met"),
    ("CN(CCO)CC[C@H](CSc1ccccc1)Nc1ccc(S(=O)(=O)NC(=O)c2ccc(N3CCC([C@@H](O)c4ccccc4-c4ccc(Cl)cc4)CC3)cc2)cc1S(=O)(=O)C(F)(F)F [AZD4320] + CCN(CCO)CCCOc1ccc2c(Nc3cc(CC(=O)Nc4cccc(F)c4)[nH]n3)ncnc2c1 [AZD2811] (first compound max 1 µM, 7x7, partner max 1 µM)", "KYSE-70 (Esophageal Squamous Cell Carcinoma)", "condition met"),
    ("O=C(c1cc(Cc2n[nH]c(=O)c3ccccc23)ccc1F)N1CCN(C(=O)C2CC2)CC1 [Olaparib] + CN(CC[C@H](CSC1=CC=CC=C1)NC2=C(C=C(C=C2)S(=O)(=O)NC(=O)C3=CC=C(C=C3)N4CCC(CC4)[C@H](C5=CC=CC=C5C6=CC=C(C=C6)Cl)O)S(=O)(=O)C(F)(F)F)CCO [AZD4320] (first compound max 10 µM, 7x7, partner max 1 µM)", "KYSE-70 (Esophageal Squamous Cell Carcinoma)", "condition not met"),
    ("Cc1c2c(nn1C)CSCc1cc(n(C)n1)CSc1cc(c3ccccc3c1)OCCCc1c(C(=O)O)n(C)c3c-2c(Cl)ccc13 [AZD5991] + C[C@@H](Nc1cc(F)cc(F)c1)c1cc(C(=O)N(C)C)cc2c(=O)cc(N3CCOCC3)oc12 [AZD8186] (first compound max 1 µM, 7x7, partner max 3 µM)", "KYSE-70 (Esophageal Squamous Cell Carcinoma)", "condition not met"),
    ("NC1(C(=O)N[C@@H](CCO)c2ccc(Cl)cc2)CCN(c2ncnc3[nH]ccc23)CC1 [Capivasertib] + Cn1cnc2c(F)c(Nc3ccc(Br)cc3Cl)c(C(=O)NOCCO)cc21 [Selumetinib] (first compound max 10 µM, 7x7, partner max 10 µM)", "KYSE-70 (Esophageal Squamous Cell Carcinoma)", "condition met"),
    ("CC(=O)c1c(C)c2cnc(Nc3ccc(N4CCNCC4)cn3)nc2n(C2CCCC2)c1=O [Palbociclib] + CC1(C)CCC(CN2CCN(c3ccc(C(=O)NS(=O)(=O)c4ccc(NCC5CCOCC5)c([N+](=O)[O-])c4)c(Oc4cnc5[nH]ccc5c4)c3)CC2)=C(c2ccc(Cl)cc2)C1 [Venetoclax] (first compound max 10 µM, 7x7, partner max 1 µM)", "KYSE-70 (Esophageal Squamous Cell Carcinoma)", "condition not met"),
    ("NC1(C(=O)N[C@@H](CCO)c2ccc(Cl)cc2)CCN(c2ncnc3[nH]ccc23)CC1 [Capivasertib] + CCN(CCO)CCCOc1ccc2c(Nc3cc(CC(=O)Nc4cccc(F)c4)[nH]n3)ncnc2c1 [AZD2811] (first compound max 10 µM, 7x7, partner max 1 µM)", "KYSE-70 (Esophageal Squamous Cell Carcinoma)", "condition not met"),
    ("CN(CCO)CC[C@H](CSc1ccccc1)Nc1ccc(S(=O)(=O)NC(=O)c2ccc(N3CCC([C@@H](O)c4ccccc4-c4ccc(Cl)cc4)CC3)cc2)cc1S(=O)(=O)C(F)(F)F [AZD4320] + Cn1cnc2c(F)c(Nc3ccc(Br)cc3Cl)c(C(=O)NOCCO)cc21 [Selumetinib] (first compound max 1 µM, 7x7, partner max 3 µM)", "KYSE-70 (Esophageal Squamous Cell Carcinoma)", "condition met"),
    ("Cc1cc2ncnn2cc1Nc1ncc2c(n1)n(C1CCOCC1)c(=O)n2C [AZD7648] + CCN(CCO)CCCOc1ccc2c(Nc3cc(CC(=O)Nc4cccc(F)c4)[nH]n3)ncnc2c1 [AZD2811] (first compound max 10 µM, 7x7, partner max 1 µM)", "KYSE-70 (Esophageal Squamous Cell Carcinoma)", "condition met"),
    ("CS(=O)(=O)CCNCc1ccc(-c2ccc3ncnc(Nc4ccc(OCc5cccc(F)c5)c(Cl)c4)c3c2)o1 [Lapatinib] + C[C@@H](Oc1cc(-c2cnn(C3CCNCC3)c2)cnc1N)c1c(Cl)ccc(F)c1Cl [Crizotinib] (first compound max 10 µM, 7x7, partner max 10 µM)", "KYSE-70 (Esophageal Squamous Cell Carcinoma)", "condition not met"),
    ("CC1(C)CCC(CN2CCN(c3ccc(C(=O)NS(=O)(=O)c4ccc(NCC5CCOCC5)c([N+](=O)[O-])c4)c(Oc4cnc5[nH]ccc5c4)c3)CC2)=C(c2ccc(Cl)cc2)C1 [Venetoclax] + Cc1cc2ncnn2cc1Nc1ncc2c(n1)n(C1CCOCC1)c(=O)n2C [AZD7648] (first compound max 1 µM, 7x7, partner max 10 µM)", "KYSE-70 (Esophageal Squamous Cell Carcinoma)", "condition met"),
    ("C=CCn1c(=O)c2cnc(Nc3ccc(N4CCN(C)CC4)cc3)nc2n1-c1cccc(C(C)(C)O)n1 [AZD1775] + C[C@@H]1COCCN1C2=NC(=NC(=C2)C3(CC3)[S@](=N)(=O)C)C4=C5C=CNC5=NC=C4 [AZD6738] (first compound max 1 µM, partner max 10 µM)", "KYSE-70 (Esophageal Squamous Cell Carcinoma)", "condition met"),
    ("CN(C)CCCOc1ccc(-c2ccc3ncc4c(c3c2)n(C2CCOCC2)c(=O)n4C)cn1 [AZD0156] + C=CCn1c(=O)c2cnc(Nc3ccc(N4CCN(C)CC4)cc3)nc2n1-c1cccc(C(C)(C)O)n1 [AZD1775] (first compound max 1 µM, partner max 1 µM)", "KYSE-70 (Esophageal Squamous Cell Carcinoma)", "condition not met"),
]
